- System: CEM cells HIV-1 protection, formazan growth assay
- TEST NAME: NCI AIDS Antiviral Assay;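 active = compounds giving half or more protection of infected cells from virus-caused growth loss, again on retest; inactive = the rest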
- Description: The ability of compounds to protect human CEM cells from HIV-1 infection is measured as a screen for new compounds capable of inhibiting the HIV virus. Five concentrations of drug were tested on uninfected and infected cells and cell growth was measured using a soluble formazan assay. […] Compounds that provided at least 50% protection were retested. Compounds that provided at least 50% protection on retest were listed as moderately active. […]
Labels: 1.0 for active, 0.0 for inactive

COMPOUND	TARGET OR SYSTEM	CATEGORY LABEL
COC12OC3(C4OC41)C(C(=O)O[C@H]3CO[Si](C)(C)C(C)(C)C)C2S(=O)(=O)c1ccccc1 (stereo partly specified)	CEM cells HIV-1 protection, formazan growth assay	0.0
COC12C=CC(CC1)c1c2c(O)c2nc(C)c(C)nc2c1O (stereo unspecified)	CEM cells HIV-1 protection, formazan growth assay	0.0
COc1c2c(cc3oc(C)cc(=O)c13)OC(=N)C(C(N)=O)C2CC(=O)c1ccc(N)cc1 (stereo unspecified)	CEM cells HIV-1 protection, formazan growth assay	1.0
CCC1(NC(=O)CN)C(=O)NC(=O)NC1=O	CEM cells HIV-1 protection, formazan growth assay	0.0
C#CCNC(CS)C(=O)O (stereo unspecified)	CEM cells HIV-1 protection, formazan growth assay	0.0
CONC(C)=O	CEM cells HIV-1 protection, formazan growth assay	0.0
CCOC(=O)/C(=C/c1ccc(OC)cc1)P(=O)(OCC)OCC	CEM cells HIV-1 protection, formazan growth assay	0.0
Cc1cc(Cl)ccc1NC(=O)C(=O)C(C(=O)c1ccccc1)C1OC(=O)c2ccccc21 (stereo unspecified)	CEM cells HIV-1 protection, formazan growth assay	0.0
O=C1Cn2c(cc(=O)c3ccccc32)O1	CEM cells HIV-1 protection, formazan growth assay	0.0
COc1cc2c(c(OC)c1O)-c1ccc(OC)c(=O)cc1[C@@H](NC(=O)C(F)(F)F)CC2	CEM cells HIV-1 protection, formazan growth assay	0.0
N=c1ccc2nc(N)nn(O)c-2c1	CEM cells HIV-1 protection, formazan growth assay	0.0

----------
This listing pairs molecules with measured EC50.
- System: CEM cells HIV-1 protection, formazan growth assay
- TEST NAME: NCI AIDS Antiviral Assay

MOLECULE	EC50
COP(=N[Si](C)(C)C)(OC)OC	> 200 µM
CC(C)(C)N/N=C(\Cc1occc(=O)c1O)C(=O)Nc1ccc([N+](=O)[O-])cc1[N+](=O)[O-]	> 158 µM
O=C(Nc1ccccc1)c1c(O)[nH]c(=O)[nH]c1=O	> 75.9 µM
CC1=C/N\C(C#N)=C(C#N)/N=C/C(C)=C\N\C(C#N)=C(C#N)/N=C\1	> 200 µM
CCOc1ccc(Nc2nc(N)nc(N)c2N=O)cc1	> 151 µM
N=C1N(c2ccccc2)C(=S)C(=Nc2ccccc2)N1c1ccccc1	> 200 µM
CSc1ccc(C2OC(=O)c3c2ccc2ccccc32)c(C)c1 (stereo unspecified)	> 16.2 µM
Clc1ccc(OCCSCCCCCCCCCCSCCOc2ccc(Cl)cc2)cc1	> 7.24 µM
O=C(NC12CC3CC(CC(F)(C3)C1)C2)c1ccccc1	> 132 µM
COCN1COCN(C)C1=O	> 1550 µM
COc1cc(/C=C2\C=Cc3ccccc32)cc(OC)c1OC	> 24.5 µM
